pKi: −log10 of the molar value.
UniProt P28222 pKi, compiled from various sources.
endpoint: pKi

Some compounds with known pKi results, for comparison:
[
  {
    "compound": "CN1CCN(c2nc3cc(C(F)(F)F)ccc3n3cccc23)CC1",
    "pKi": 10.40
  },
  {
    "compound": "CCCN(CCC)C1CCc2cc(CS(=O)(=O)c3ccc(OC)cc3)ccc2C1 (configuration not stated)",
    "pKi": 6.00
  },
  {
    "compound": "NCCc1c[nH]c2ccc(OCC(=O)N3CCN(c4ccc(NC(=O)c5ccccc5)cc4)CC3)cc12",
    "pKi": 8.89
  },
  {
    "compound": "CS(=O)(=O)NCc1ccc(N2CCN(C(=O)COc3ccc4[nH]cc(CCN)c4c3)CC2)cc1",
    "pKi": 8.66
  }
]

I. NCCc1c[nH]c2ccc(OCCCCCC(=O)N3CCN(c4ccc(N)cc4)CC3)cc12
II. NCCc1c[nH]c2ccc(OCCCCC(=O)N3CCN(c4ccc([N+](=O)[O-])cc4)CC3)cc12
Hi there, can you help? I need to know whether I or II has lower measured pKi. Your choice should be expressed through its label.
II
(II: 8.74, I: 9.51)

###

pKi: −log10 of the molar value.
Listed below are compounds with pKi for 5-hydroxytryptamine receptor 1B (Homo sapiens, UniProt P28222), each taken from published literature.
endpoint: pKi

Some compounds with known pKi results, for comparison:
[
  {
    "compound": "Nc1c(Cl)cc(-c2nn(C3CCN(CCc4ccccc4)CC3)c(=O)o2)c2c1OCCO2",
    "endpoint": "pKi",
    "measured": 5.26
  },
  {
    "compound": "Cc1nc2n(c(=O)c1CCN1CCC(c3noc4cc(F)ccc34)CC1)CCCC2O (stereo not given)",
    "endpoint": "pKi",
    "measured": 7.64
  },
  {
    "compound": "CS(=O)(=O)NCc1ccccc1N1CCN(C(=O)COc2ccc3[nH]cc(CCN)c3c2)CC1",
    "endpoint": "pKi",
    "measured": 9.28
  },
  {
    "compound": "CN(C)S(=O)(=O)Nc1ccc(N2CCN(C(=O)COc3ccc4[nH]cc(CCN)c4c3)CC2)cc1",
    "endpoint": "pKi",
    "measured": 8.72
  }
]

1. CS(=O)(=O)Nc1ccc(N2CCN(C(=O)CCCCCOc3ccc4[nH]cc(CCN)c4c3)CC2)cc1
2. CS(=O)(=O)Nc1ccc(N2CCN(C(=O)COc3ccc4[nH]cc(CCN)c4c3)CC2)cc1
3. CSc1ccc2c(c1)C(N1CCN(C)CC1)Cc1ccccc1S2 (stereo not given)
4. CCCCCCOc1nsnc1C1=CCCN(C)C1
Sort these compounds on pKi so the largest reading comes first. Lab note: final answer is the ordered label list.
3, 1, 2, 4
(3: 9.70, 1: 8.85, 2: 8.57, 4: 7.30)
